FYI, the data here is from ChEMBL document CHEMBL3352549.

Give IC50 for every item shown.
- systemUnderTest: Acetylcholinesterase (Mus musculus, UniProt P21836)
- Sequence (P21836 whole entry): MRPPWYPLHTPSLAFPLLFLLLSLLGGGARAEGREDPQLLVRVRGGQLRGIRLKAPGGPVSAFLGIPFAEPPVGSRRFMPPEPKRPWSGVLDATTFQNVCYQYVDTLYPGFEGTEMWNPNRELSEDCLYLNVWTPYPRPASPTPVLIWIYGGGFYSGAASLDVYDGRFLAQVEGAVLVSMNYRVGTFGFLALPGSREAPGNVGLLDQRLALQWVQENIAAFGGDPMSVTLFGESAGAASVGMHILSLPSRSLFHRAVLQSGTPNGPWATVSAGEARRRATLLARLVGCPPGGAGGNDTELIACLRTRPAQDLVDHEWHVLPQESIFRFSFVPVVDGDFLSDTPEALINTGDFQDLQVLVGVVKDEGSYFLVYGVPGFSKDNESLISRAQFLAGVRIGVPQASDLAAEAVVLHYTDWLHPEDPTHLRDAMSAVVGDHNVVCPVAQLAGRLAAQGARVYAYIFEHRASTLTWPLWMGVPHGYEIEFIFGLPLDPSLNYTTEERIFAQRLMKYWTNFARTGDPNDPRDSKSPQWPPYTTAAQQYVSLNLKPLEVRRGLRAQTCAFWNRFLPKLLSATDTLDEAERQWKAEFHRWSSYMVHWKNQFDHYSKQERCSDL
- assayComment: Inhibition of recombinant mouse AChE by Ellman method
- testContext: read-out: IC50
Write it as a number; the unit µM goes unstated.

q: Fill in: IC50 on Acetylcholinesterase (Mus musculus, UniProt P21836), entry "COCCN(C[C@H]1CCCN(C2Cc3ccccc3C2)C1)C(=O)c1ccc2ccccc2c1"
a: 110

q: Give Acetylcholinesterase (Mus musculus, UniProt P21836) IC50 for the following compound: "COCCN(C[C@@H]1CCCN(C2Cc3ccccc3C2)C1)C(=O)c1ccc2ccccc2c1"
a: 101

====

Can you tell me pIC50 for the items I'm about to list?
Conceptually, pIC50 converts a concentration in mol/L into minus its log10.

q: Look up and report measured pIC50 (Cholinesterase (Homo sapiens, UniProt P06276)) for the following molecule: "COCCN(C[C@@H]1CCCN(C2Cc3ccccc3C2)C1)C(=O)c1ccc2ccccc2c1"
a: 7.89

q: Answer with pIC50 of "COCCN(C[C@H]1CCCN(C2Cc3ccccc3C2)C1)C(=O)c1ccc2ccccc2c1" measured for Cholinesterase (Homo sapiens, UniProt P06276).
a: 6.78

q: GET pIC50 where system = Cholinesterase (Homo sapiens, UniProt P06276) and item = CCn1nc(C(=O)N2CCCC2)c2c1CCC(NCCc1nc(-c3ccccc3)cs1)C2 (centres undefined)
Sequence (P06276 whole entry): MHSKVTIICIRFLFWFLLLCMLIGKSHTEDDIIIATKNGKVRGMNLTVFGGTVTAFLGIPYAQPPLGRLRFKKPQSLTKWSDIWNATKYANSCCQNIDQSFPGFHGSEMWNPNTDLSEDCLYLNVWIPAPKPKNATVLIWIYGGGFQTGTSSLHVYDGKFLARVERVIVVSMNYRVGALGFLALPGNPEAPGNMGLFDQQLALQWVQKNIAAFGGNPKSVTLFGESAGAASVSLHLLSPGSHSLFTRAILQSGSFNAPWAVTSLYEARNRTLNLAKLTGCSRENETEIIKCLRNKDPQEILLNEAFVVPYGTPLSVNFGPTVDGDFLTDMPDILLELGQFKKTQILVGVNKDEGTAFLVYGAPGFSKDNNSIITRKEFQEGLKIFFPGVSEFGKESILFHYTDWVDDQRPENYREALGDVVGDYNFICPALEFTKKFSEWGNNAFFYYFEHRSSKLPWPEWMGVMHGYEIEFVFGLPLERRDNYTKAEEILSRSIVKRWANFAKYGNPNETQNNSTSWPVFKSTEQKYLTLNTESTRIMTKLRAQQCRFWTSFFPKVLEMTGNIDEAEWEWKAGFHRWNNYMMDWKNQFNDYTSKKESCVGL
a: 5.67

q: State pIC50 on Cholinesterase (Homo sapiens, UniProt P06276). Entry: CC(c1nc2ccccc2s1)N(C)C(=O)CN1CCCC1c1ccc2c(c1)OCCCO2 (centres undefined)
a: 5.87

====

Provide the recorded Ki for the entries that follow.
- systemUnderTest: Cholinesterase (Homo sapiens, UniProt P06276)
- assayComment: Inhibition of recombinant human BChE at 50 nM by stopped flow apparatus method
Give the number; nM is assumed, so skip it.

q: Hello, please tell me recorded Ki for this one: "COCCN(C[C@H]1CCCN(C2Cc3ccccc3C2)C1)C(=O)c1ccc2ccccc2c1"
a: 27

q: Item "COCCN(C[C@@H]1CCCN(C2Cc3ccccc3C2)C1)C(=O)c1ccc2ccccc2c1" : provide Ki
a: 2.71
